Source of measurements: paper PMC10397247

- testTarget: T1, 4H909-AA
- T1 chain: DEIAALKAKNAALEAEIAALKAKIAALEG
- methodNotes: two-hybrid library CCmax;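 note: natural log of median RNA to DNA barcode read ratio; higher means stronger binding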
- conditionNotes: mean of both orientations
Would you mind telling me the reported interaction score of each entry?
Answer using only a numeral; do not append any unit.

For this binder ( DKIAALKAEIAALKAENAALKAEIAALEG [4H2649-AA] ), measured interaction score is -1.6

For this binder ( DKNAALEAKIAALKAEIAALEAENAALEG [4H3395-AA] ), measured interaction score is -1.83

For this binder ( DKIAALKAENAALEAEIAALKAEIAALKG [4H2698-AA] ), measured interaction score is -0.0319

For this binder ( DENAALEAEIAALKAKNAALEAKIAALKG [4H1142-AA] ), measured interaction score is -1.05

For this binder ( DEIAALKAENAALKAKIAALKAEIAALEG [4H745-AA] ), measured interaction score is -0.361

For this binder ( DKNAALKAENAALEAKIAALKAEIAALEG [4H3753-AA] ), measured interaction score is -0.932

For this binder ( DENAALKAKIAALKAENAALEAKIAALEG [4H1877-AA] ), measured interaction score is -1.84
